# Test system: MDA-MB-468 multi-cell spheroids, viability
# assay-notes: Anticancer human tumor MDA-MB-468 cell line growth inhibition [IpAb]; active = viability on the fitted dose curve at most 10% of control; inactive = the rest;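 also: spheroids exposed to agents for seven days; 100% = DMSO vehicle control viability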
# condition-label: second compound 0.01 µM; first compound 3.16 µM
API: response.call in TRUE for active, FALSE for inactive

1. CC1(C)CCC(CN2CCN(c3ccc(C(=O)NS(=O)(=O)c4ccc(NCC5CCOCC5)c([N+](=O)[O-])c4)c(Oc4cnc5[nH]ccc5c4)c3)CC2)=C(c2ccc(Cl)cc2)C1 + CCN1CCN(Cc2ccc(Nc3ncc(F)c(-c4cc(F)c5nc(C)n(C(C)C)c5c4)n3)nc2)CC1: FALSE

Look up the recorded call for Cn1nccc1Nc1nccc(-c2ccn(C(CO)c3ccc(Cl)c(F)c3)c(=O)c2)n1 (configuration not stated) + CCN1CCN(Cc2ccc(Nc3ncc(F)c(-c4cc(F)c5nc(C)n(C(C)C)c5c4)n3)nc2)CC1 in this test. FALSE

Look up the recorded call for Cn1ncc(Cl)c1-c1cc(C(=O)NC(CN)Cc2cccc(F)c2)sc1Cl (configuration not stated) + CCN1CCN(Cc2ccc(Nc3ncc(F)c(-c4cc(F)c5nc(C)n(C(C)C)c5c4)n3)nc2)CC1 in this test. FALSE

Look up the recorded call for Cc1nc(NC(=O)N2CCCC2C(N)=O)sc1-c1ccnc(C(C)(C)C(F)(F)F)c1 (configuration not stated) + CCN1CCN(Cc2ccc(Nc3ncc(F)c(-c4cc(F)c5nc(C)n(C(C)C)c5c4)n3)nc2)CC1 in this test. FALSE

Look up the recorded call for CCCS(=O)(=O)Nc1ccc(F)c(C(=O)c2c[nH]c3ncc(-c4ccc(Cl)cc4)cc23)c1F + CCN1CCN(Cc2ccc(Nc3ncc(F)c(-c4cc(F)c5nc(C)n(C(C)C)c5c4)n3)nc2)CC1 in this test. FALSE

Look up the recorded call for C=CCn1c(=O)c2cnc(Nc3ccc(N4CCN(C)CC4)cc3)nc2n1-c1cccc(C(C)(C)O)n1 + CCN1CCN(Cc2ccc(Nc3ncc(F)c(-c4cc(F)c5nc(C)n(C(C)C)c5c4)n3)nc2)CC1 in this test. TRUE

Look up the recorded call for C=CC(=O)N1CCN(c2nc(=O)n(-c3c(C)ccnc3C(C)C)c3nc(-c4c(O)cccc4F)c(F)cc23)C(C)C1 (configuration not stated) + CCN1CCN(Cc2ccc(Nc3ncc(F)c(-c4cc(F)c5nc(C)n(C(C)C)c5c4)n3)nc2)CC1 in this test. FALSE

----------
# Tested on: MDA-MB-468 multi-cell spheroids, viability
# assay-notes: Anticancer human tumor MDA-MB-468 cell line growth inhibition [IpAb]; active = viability on the fitted dose curve at most 10% of control; inactive = the rest;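 also: spheroids exposed to agents for seven days; 100% = DMSO vehicle control viability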
# condition-label: second compound 10 µM; first compound 0.316 µM
API: response.call in label 1 (active), label 0 (inactive)

Answered examples (3):
1) Cn1nccc1Nc1nccc(-c2ccn(C(CO)c3ccc(Cl)c(F)c3)c(=O)c2)n1 (stereo not given) + CC(C)NCC(C(=O)N1CCN(c2ncnc3c2C(C)CC3O)CC1)c1ccc(Cl)cc1: label 0
2) C=CCn1c(=O)c2cnc(Nc3ccc(N4CCN(C)CC4)cc3)nc2n1-c1cccc(C(C)(C)O)n1 + CC(C)NCC(C(=O)N1CCN(c2ncnc3c2C(C)CC3O)CC1)c1ccc(Cl)cc1: label 1
3) CC1(C)CCC(CN2CCN(c3ccc(C(=O)NS(=O)(=O)c4ccc(NCC5CCOCC5)c([N+](=O)[O-])c4)c(Oc4cnc5[nH]ccc5c4)c3)CC2)=C(c2ccc(Cl)cc2)C1 + CC(C)NCC(C(=O)N1CCN(c2ncnc3c2C(C)CC3O)CC1)c1ccc(Cl)cc1: label 0

Look up the recorded call for Cn1ncc(Cl)c1-c1cc(C(=O)NC(CN)Cc2cccc(F)c2)sc1Cl (stereo not given) + CC(C)NCC(C(=O)N1CCN(c2ncnc3c2C(C)CC3O)CC1)c1ccc(Cl)cc1 in this test. label 0

Look up the recorded call for CCCS(=O)(=O)Nc1ccc(F)c(C(=O)c2c[nH]c3ncc(-c4ccc(Cl)cc4)cc23)c1F + CC(C)NCC(C(=O)N1CCN(c2ncnc3c2C(C)CC3O)CC1)c1ccc(Cl)cc1 in this test. label 0

----------
# Tested on: MDA-MB-468 multi-cell spheroids, viability
# assay-notes: Anticancer human tumor MDA-MB-468 cell line growth inhibition [IpAb];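 also: spheroids exposed to agents for seven days; 100% = DMSO vehicle control viability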
# condition-label: second compound 1 µM; first compound 0.01 µM; hits give low values
Exercise: for every item that follows, state its recorded viability, T/C.
One number for each entry, in %.

# count of solved cases: 5
1) Cn1ncnc1[C@H]1c2n[nH]c(=O)c3cc(F)cc(c23)N[C@@H]1c1ccc(F)cc1 + CC(C)NCC(C(=O)N1CCN(c2ncnc3c2C(C)CC3O)CC1)c1ccc(Cl)cc1: 54.2
2) Cn1ncnc1[C@H]1c2n[nH]c(=O)c3cc(F)cc(c23)N[C@@H]1c1ccc(F)cc1 + CCN1CCN(Cc2ccc(Nc3ncc(F)c(-c4cc(F)c5nc(C)n(C(C)C)c5c4)n3)nc2)CC1: 68.2
3) CC(C)n1nc(-c2ccc3oc(N)nc3c2)c2c(N)ncnc21 + CCN1CCN(Cc2ccc(Nc3ncc(F)c(-c4cc(F)c5nc(C)n(C(C)C)c5c4)n3)nc2)CC1: 53.2
4) CC(C)n1nc(-c2ccc3oc(N)nc3c2)c2c(N)ncnc21 + CC(C)NCC(C(=O)N1CCN(c2ncnc3c2C(C)CC3O)CC1)c1ccc(Cl)cc1: 11.3
5) COc1c(OCCCN2CCOCC2)ccc2c3n(c(=NC(=O)c4cnc(N)nc4)nc12)CCN3 + CC(C)NCC(C(=O)N1CCN(c2ncnc3c2C(C)CC3O)CC1)c1ccc(Cl)cc1: 40.3

State the recorded viability, T/C for this entry: COc1c(OCCCN2CCOCC2)ccc2c3n(c(=NC(=O)c4cnc(N)nc4)nc12)CCN3 + CCN1CCN(Cc2ccc(Nc3ncc(F)c(-c4cc(F)c5nc(C)n(C(C)C)c5c4)n3)nc2)CC1 73.6

----------
# Tested on: MDA-MB-468 multi-cell spheroids, viability
# assay-notes: Anticancer human tumor MDA-MB-468 cell line growth inhibition [IpAb];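 also: spheroids exposed to agents for seven days; 100% = DMSO vehicle control viability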
# condition-label: second compound 0.316 µM; first compound 0.000316 µM; hits give low values
measured-property: viability, T/C (%)
Answers are plain numbers, in %.

1. CC(C)n1nc(-c2ccc3oc(N)nc3c2)c2c(N)ncnc21 + CCN1CCN(Cc2ccc(Nc3ncc(F)c(-c4cc(F)c5nc(C)n(C(C)C)c5c4)n3)nc2)CC1: 91.4
2. Cn1ncnc1[C@H]1c2n[nH]c(=O)c3cc(F)cc(c23)N[C@@H]1c1ccc(F)cc1 + CCN1CCN(Cc2ccc(Nc3ncc(F)c(-c4cc(F)c5nc(C)n(C(C)C)c5c4)n3)nc2)CC1: 92.8
3. CC(C)n1nc(-c2ccc3oc(N)nc3c2)c2c(N)ncnc21 + CC(C)NCC(C(=O)N1CCN(c2ncnc3c2C(C)CC3O)CC1)c1ccc(Cl)cc1: 59

Turning now to a further record.
State the recorded viability, T/C for this entry: Cn1ncnc1[C@H]1c2n[nH]c(=O)c3cc(F)cc(c23)N[C@@H]1c1ccc(F)cc1 + CC(C)NCC(C(=O)N1CCN(c2ncnc3c2C(C)CC3O)CC1)c1ccc(Cl)cc1 62

----------
# System: MDA-MB-468 multi-cell spheroids, viability
# assay-notes: Anticancer human tumor MDA-MB-468 cell line growth inhibition [IpAb];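 also: spheroids exposed to agents for seven days; 100% = DMSO vehicle control viability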
# condition-label: second compound 3.16 µM; first compound 10 µM; hits give low values
# note: exactly 4% is not below, so it is 0 (no); use 1 (yes) for viability, T/C strictly under it

Answered examples (5):
1) Cn1nccc1Nc1nccc(-c2ccn(C(CO)c3ccc(Cl)c(F)c3)c(=O)c2)n1 (configuration not stated) + CC(C)NCC(C(=O)N1CCN(c2ncnc3c2C(C)CC3O)CC1)c1ccc(Cl)cc1: 1 (yes)
2) C=CCn1c(=O)c2cnc(Nc3ccc(N4CCN(C)CC4)cc3)nc2n1-c1cccc(C(C)(C)O)n1 + CC(C)NCC(C(=O)N1CCN(c2ncnc3c2C(C)CC3O)CC1)c1ccc(Cl)cc1: 1 (yes)
3) Cn1ncc(Cl)c1-c1cc(C(=O)NC(CN)Cc2cccc(F)c2)sc1Cl (configuration not stated) + CC(C)NCC(C(=O)N1CCN(c2ncnc3c2C(C)CC3O)CC1)c1ccc(Cl)cc1: 1 (yes)
4) CC1(C)CCC(CN2CCN(c3ccc(C(=O)NS(=O)(=O)c4ccc(NCC5CCOCC5)c([N+](=O)[O-])c4)c(Oc4cnc5[nH]ccc5c4)c3)CC2)=C(c2ccc(Cl)cc2)C1 + CC(C)NCC(C(=O)N1CCN(c2ncnc3c2C(C)CC3O)CC1)c1ccc(Cl)cc1: 1 (yes)
5) CCCS(=O)(=O)Nc1ccc(F)c(C(=O)c2c[nH]c3ncc(-c4ccc(Cl)cc4)cc23)c1F + CC(C)NCC(C(=O)N1CCN(c2ncnc3c2C(C)CC3O)CC1)c1ccc(Cl)cc1: 0 (no)

Just wondering, is viability, T/C of Cc1nc(NC(=O)N2CCCC2C(N)=O)sc1-c1ccnc(C(C)(C)C(F)(F)F)c1 (configuration not stated) + CC(C)NCC(C(=O)N1CCN(c2ncnc3c2C(C)CC3O)CC1)c1ccc(Cl)cc1 below 4%? 0 (no)

Just wondering, is viability, T/C of C=CC(=O)N1CCN(c2nc(=O)n(-c3c(C)ccnc3C(C)C)c3nc(-c4c(O)cccc4F)c(F)cc23)C(C)C1 (configuration not stated) + CC(C)NCC(C(=O)N1CCN(c2ncnc3c2C(C)CC3O)CC1)c1ccc(Cl)cc1 below 4%? 0 (no)
